Where do the numbers come from? From PubChem BioAssay (NCI).

Catalogue of TGI values
system: OVCAR-8 ovarian; experiment: NCI tumour cell line growth inhibition, 48 h
*1 amine or outer side, *2 acyl side, *3 side chain or, on linkers, in order; H or OH if unused. Where a SMILES comes first, the peptide text is derived from it. Bridges are numbered along the chain shown (N, C = ends). Roman numbers before positions name the chains, in order. [ ]: non-standard residue; d: D form. Actinocin(9to1) = Cc1c2oc3c(C)ccc(C(=O)[*:1])c3nc-2c(C(=O)[*:2])c(N)c1=O; NMeH = CN[CH](Cc1c[nH]cn1)C(=O)O; Sar = CNCC(=O)O
Metric Name: TGI

{"Compound": "CC1CC[C@@]2(OC1)O[C@H]1[C@H](O)[C@H]3[C@@H]4CC[C@H]5C[C@@H](OC6OC(CO)C(OC7OC(CO)C(O)C(OC8OCC(O)C(O)C8O)C7OC7OC(CO)C(O)C(O)C7OC7OC(CO)C(O)C(O)C7O)C(O)C6O)[C@H](O)C[C@]5(C)[C@H]4CC[C@]3(C)[C@H]1[C@@H]2C (some centres undefined)", "Result": "> 10 µM"}
{"Compound": "O=C1CCCNn2c(nc3ncccc3c2=O)N1", "Result": "> 100 µM"}
{"Compound": "Cc1c2oc3c(C)ccc(C(=O)NC4C(=O)NC(C(C)C)C(=O)N5CCCC5C(=O)N(C)CC(=O)N(C)C(Cc5cnc[nH]5)C(=O)OC4C)c3nc-2c(C(=O)NC2C(=O)NC(C(C)C)C(=O)N3CCCC3C(=O)N(C)CC(=O)N(C)C(Cc3cnc[nH]3)C(=O)OC2C)c(N)c1=O (centres undefined) (I: TVP[Sar][NMeH] / II: TVP[Sar][NMeH]; ester I:1-I:C, II:1-II:C; linker I:N-II:N via Actinocin(9to1); configuration not given here)", "Result": "> 100 µM"}
{"Compound": "CNC(=O)NCC1OC(n2cnc3c(NC(=O)Nc4ccccc4)ncnc32)C(O[Si](C)(C)C(C)(C)C)C1O[Si](C)(C)C(C)(C)C (centres undefined)", "Result": "40.1 µM"}

---

tested on: RPMI-8226 leukemia; assay: NCI tumour cell line growth inhibition, 48 h; in the data active = GI50 below about 0.43 µM; inactive = the rest
Classes used: true (1) = active, false (0) = inactive

{"Molecule": "Cc1ccc(/C=C/c2c(C(=O)/C=C/c3ccccc3)c(C)nc3ccccc23)cc1", "Discrete Label": "false (0)"}
{"Molecule": "CNC(=O)NCC1OC(n2cnc3c(NC(=O)Nc4ccccc4)ncnc32)C(O[Si](C)(C)C(C)(C)C)C1O[Si](C)(C)C(C)(C)C (centres undefined)", "Discrete Label": "false (0)"}
{"Molecule": "CO/N=C(\\COc1ccc2c(=O)c3ccccc3oc2c1)c1ccccc1", "Discrete Label": "false (0)"}
{"Molecule": "COC(C)(C)[C@@H](O)[C@H](O)C[C@H](C)C1=C2CC[C@@H]3[C@@]4(C)CC[C@@H](OC(C)=O)C(C)(C)[C@@H]4C[C@@H](OC4OC(COC(C)=O)C(O)C(O)C4O)[C@@]3(C)[C@]2(C)CC1 (some centres undefined)", "Discrete Label": "false (0)"}
{"Molecule": "CCC[CH2][Sn]([CH2]CCC)([O]C(=O)c1cc(OC)c(OC)cc1OC)[O][Sn]([CH2]CCC)([CH2]CCC)[O]C(=O)c1cc(OC)c(OC)cc1OC", "Discrete Label": "true (1)"}
{"Molecule": "Oc1c(C(Nc2ccccc2Br)c2ccccc2)ccc2cccnc12 (centres undefined)", "Discrete Label": "false (0)"}
{"Molecule": "NC(=N\\N=C/c1ccc(O)cc1)/C(N)=N\\N=C/c1ccc(O)cc1", "Discrete Label": "false (0)"}
{"Molecule": "COc1ccc(/C=C(/c2ccccc2)[N+](=O)[O-])c(OC)c1", "Discrete Label": "true (1)"}
{"Molecule": "CCCCNNC(=O)c1ccc(Br)cc1", "Discrete Label": "false (0)"}
{"Molecule": "O=[N+]([O-])c1cc[n+]([O-])c2ccccc12", "Discrete Label": "true (1)"}
{"Molecule": "CN(C)C(=O)Nc1nc2cc(Cl)c(Cl)cc2[nH]1", "Discrete Label": "false (0)"}
{"Molecule": "COc1ccc(-c2cc(=O)n(-c3nc4ccccc4[nH]3)[nH]2)cc1OC", "Discrete Label": "false (0)"}
{"Molecule": "C#C[C@]1(O)CC[C@H]2[C@@H]3CC=C4c5sc(Nc6cc(F)ccc6F)nc5CC[C@]4(C)[C@H]3CC[C@@]21C", "Discrete Label": "true (1)"}
{"Molecule": "CCC(=O)N1C/C(=C/c2ccc(Cl)cc2)C(=O)/C(=C/c2ccc(Cl)cc2)C1", "Discrete Label": "true (1)"}

---

Catalogue of log10(TGI) values
tested on: HCT-15 colon; assay: NCI tumour cell line growth inhibition, 48 h
Metric Name: log10(TGI) (log10 of the value in µM)

{"Compound": "COc1cc(/C=C2\\CC/C(=C\\c3cc(OC)c(O)c(OC)c3)C2=O)cc(OC)c1O", "Measured On": "HCT-15 colon", "log10(TGI)": 1.27}
{"Compound": "COc1ccccc1/C=C1\\COc2ccc(-c3ccccc3)cc2C1=O", "Measured On": "HCT-15 colon", "log10(TGI)": 1.12}
{"Compound": "COc1cc(-c2nc3ccccc3s2)ccc1OCCCCOc1cc2c(cc1OC)C(=O)N1CCC[C@H]1C=N2", "Measured On": "HCT-15 colon", "log10(TGI)": 0.65}
{"Compound": "CC1=CC2C(C(O)CC3(C)C2CC(C)C32OCOC23COCO3)C2(C)C/C(=C/O)C(=O)C=C12 (stereo not given)", "Measured On": "HCT-15 colon", "log10(TGI)": 0.71}
{"Compound": "COC(=O)c1c2c(c(C)[n+]([O-])c1C)C(=O)C=C(NCc1ccccc1)C2=O", "Measured On": "HCT-15 colon", "log10(TGI)": 0.26}
{"Compound": "COc1cc(/C=C/c2ccc(C)cc2)cc(OC)c1OC", "Measured On": "HCT-15 colon", "log10(TGI)": 1.30}

---

system: NCI-H522 lung; experiment: NCI tumour cell line growth inhibition, 48 h

{"Compound": "CC(C(=O)OCc1ccccc1)N(Cc1ccccc1)Cc1ccccc1 (centres undefined)", "TGI": "> 100 µM"}
{"Compound": "c1nc(NCCc2cnc[nH]2)c2[nH]cnc2n1", "TGI": "> 100 µM"}
{"Compound": "COc1cc2c3c(n(CCCN)c(=O)c2cc1OC)-c1ccc([N+](=O)[O-])cc1C3=O", "TGI": "10.8 µM"}
{"Compound": "OCCCCC#Cc1ccccc1C#Cc1ccc(O)cc1", "TGI": "28.8 µM"}
{"Compound": "CNC(=O)NCC1OC(n2cnc3c(NC(=O)Nc4ccccc4)ncnc32)C(O[Si](C)(C)C(C)(C)C)C1O[Si](C)(C)C(C)(C)C (centres undefined)", "TGI": "7.14 µM"}
{"Compound": "COc1cc2c(cc1OC)C(C(=O)O)C(c1ccccc1)N(C)C2=O (centres undefined)", "TGI": "> 100 µM"}
{"Compound": "Cn1nc2ccc(Nc3cc(=O)[nH]c4ccc5nn(C)nc5c34)cc2n1", "TGI": "> 100 µM"}
{"Compound": "O=C1c2cc(Cc3ccccc3)c(=O)c(Cc3ccccc3)cc2C(=O)c2cc(Cc3ccccc3)c(=O)c(Cc3ccccc3)cc21", "TGI": "> 100 µM"}
{"Compound": "C1=C(c2ccccc2)C(N2CCOCC2)Oc2ccccc21 (centres undefined)", "TGI": "> 100 µM"}
{"Compound": "CSC(SC)=C(C#N)C(=O)Nc1cccc(Cl)c1", "TGI": "43.8 µM"}
{"Compound": "Cc1c(C(=O)C/C(=N/NC(=O)c2ccccc2)C(=O)Nc2ccc(Cl)cc2)[n+](=O)c2ccccc2n1[O-]", "TGI": "> 100 µM"}
{"Compound": "Cn1cnc(N)c(N=O)c1=O", "TGI": "> 10 µM"}
{"Compound": "C=C1C(=O)O[C@H]2[C@H]1CC/C(COC(=O)CCCCCC(=O)OC/C1=C/CC[C@@]3(C)O[C@H]3[C@H]3OC(=O)C(=C)[C@@H]3CC1)=C\\CC[C@@]1(C)O[C@@H]21", "TGI": "3.44 µM"}
{"Compound": "CN1CCN(Cc2c[nH]c3c2C(=O)c2c(c(O)c4ccccc4c2O)C3=O)CC1", "TGI": "33.8 µM"}
{"Compound": "O=[N+]([O-])c1cc[n+]([O-])c2ccccc12", "TGI": "0.754 µM"}
{"Compound": "Cc1cn2c(/C=C3/C(=O)Nc4c3ccc3ccccc43)c(C(F)(F)F)nc2s1", "TGI": "> 100 µM"}
{"Compound": "NC(Cc1ccc(OCc2ccccc2)cc1)C(=O)NC(Cc1ccccc1)C(=O)Oc1c(Cl)c(Cl)c(Cl)c(Cl)c1Cl (centres undefined)", "TGI": "42.3 µM"}
{"Compound": "CCC1(O)CC(OC2CC(N(C)C)C(OC3CC(O)C(OC4OC(C)C(=O)C=C4N)C(C)O3)C(C)O2)c2c(cc3c(c2O)C(=O)c2c(O)cccc2C3=O)C1C(=O)OC (centres undefined)", "TGI": "0.319 µM"}
{"Compound": "CCOC(=O)c1ccc(Nc2nc3ccccc3nc2-c2cccs2)cc1", "TGI": "80.7 µM"}
